- protocol.details: Phase 1 multiple ascending dose (MAD) plasma pharmacokinetics
- Type: in vivo, human
- condition.label: human, plasma, oral, 560 mg, 560 mg QD, Day 14, age up to 64 years (n = 8); read-out: Tmax (median)
metric.name: Tmax (h)
Lab book: enter the figure in h, no units written.

The recorded Tmax for CC(C)(C)Oc1cc(CCC(C)(C)N2Cc3ccc(S(C)(=O)=O)cc3C2)ccc1O is 2

###

- protocol.details: Phase 1 multiple ascending dose (MAD) plasma pharmacokinetics
- Type: in vivo, human
- condition.label: 560 mg QD, Day 14, age up to 64 years (n = 8); unit assumed
metric.name: CLss/F (mean) (L/h)
Lab book: enter the figure in L/h, no units written.

The recorded CLss/F (mean) for CC(C)(C)Oc1cc(CCC(C)(C)N2Cc3ccc(S(C)(=O)=O)cc3C2)ccc1O is 296
